# assay explanation: Plasma pharmacokinetics in infected vervet monkeys (HPLC-MS/MS)
# Format: in vivo, vervet monkey
# measurement context: monkey, in vivo, im, 2.5 mg/kg, after 5th IM dose; Group 3 = 2.5 mg/kg × 5 consecutive days; read-out: t½ (terminal half-life) (converted)
quantity kind: half-life (days)
Give the value, in units of days, as a plain number.

I'd like to know its half-life. The compound in question is N=C(N)c1ccc(-c2ccc(-c3ccc(C(=N)N)cn3)o2)nc1 [DB829, 2,5-bis(5-amidino-2-pyridyl)furan]
33

###

# assay explanation: Plasma pharmacokinetics in infected vervet monkeys (HPLC-MS/MS)
# Format: in vivo, vervet monkey
# measurement context: monkey, in vivo, im, 2.5 mg/kg, plasma DB829 after 5th IM dose; Group 3 = 2.5 mg/kg × 5 consecutive days; read-out: Tmax (converted)
quantity kind: Tmax (min)
Give the value, in units of min, as a plain number.

I'd like to know its Tmax. The molecule in question is N=C(N)c1ccc(-c2ccc(-c3ccc(C(=N)N)cn3)o2)nc1 [DB829, 2,5-bis(5-amidino-2-pyridyl)furan]
57.6
